Give EC50 for every item shown.
System: HIV-1 (strain LAV)
Experiment: microbe, parasite or virus in culture
Assay type: cell-based
Conditions: human PBM cells infected with HIV-1; enantiomers isolated by chiral HPLC (Example 3); read-out: EC50
Could you give me the number in nM? Just the number is fine.

Enquiry: Quick check: EC50 of Nc1ccn(C2CSC(CO)O2)c(=O)n1 (stereo not drawn) [BCH-189 (+)] ?
Return: 230

Enquiry: Quick check: EC50 of Nc1ccn(C2CSC(CO)O2)c(=O)n1 (stereo not drawn) [BCH-189 (−)] ?
Return: 16

* * *

Tested on: HIV-1 (strain LAV)
Assay: microbe, parasite or virus in culture
Type: cell-based
Conditions: Human immunodeficiency virus 1, PBMC, human PBM cells infected with HIV-1; enantiomers resolved by method of Example 2 (FIG. 5); read-out: EC50
Observation type: pEC50
Keep it numeric: pEC50 is minus log10 of the concentration in mol/L.

Enquiry: Quick check: pEC50 of Nc1nc(=O)n(C2CSC(CO)O2)cc1F (racemic) ?
Return: 7.77

* * *

Test system: HIV-1 (strain LAV)
Test: microbe, parasite or virus in culture
Format: cell-based
Conditions: summary range; listed as (+)-enantiomer of FTC; read-out: EC50 against HIV
pEC50: −log10 of the molar value.
Observation type: pEC50

Enquiry: Quick check: pEC50 of Nc1nc(=O)n(C2CSC(CO)O2)cc1F (single isomer, unassigned; (+)) [DLS-059 (+)] ?
Return: 6.08 to 6.55

* * *

Target: HIV RT (Human immunodeficiency virus type 1 group M subtype B, UniProt P04585)
Observation type: Ki (nM)
Could you give me the number in nM? Just the number is fine.

Enquiry: Quick check: Ki of Nc1nc(=O)n(C2CSC(COP(=O)(O)OP(=O)(O)OP(=O)(O)O)O2)cc1F (racemic) [FTC-triphosphate] ?
Return: 200
